# target.of.assay: T1, human BCMA (huBCMA), full length, on cells (human, UniProt Q02223 1-184)
# T1 construct: also called native huBCMA; B-cell maturation antigen
# T1 chain: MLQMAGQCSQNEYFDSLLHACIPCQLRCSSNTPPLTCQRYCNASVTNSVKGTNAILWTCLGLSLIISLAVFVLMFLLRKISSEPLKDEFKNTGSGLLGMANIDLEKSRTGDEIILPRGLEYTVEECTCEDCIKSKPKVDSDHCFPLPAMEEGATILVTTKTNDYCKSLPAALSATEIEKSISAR
# assay.method.text: APRIL blocking FACS
# Design: concentration or dose not given beside the values
// returns criterion not met unless % Inhibition n=2 is strictly below 90%, in which case criterion met

[Q] A record lists 37B2 (antibody, V domains shown, Tested as purified hybridoma IgG2 or IgG4; also called Ab-16; 37B2.1) VH: EVQLLESGGALVQPGGSLRLSCAASGFTFSNYAMNWVRQAPGKGLEWVSAISVGGDTYYADSVKGRFTISRDNSKNTLYLHVNSLSAEDSAVYYCAKDQVTLVRGVWYYYGLDVWGQGTTVTVSS VL: VIVLIQSPLSLPVTPGEPASISCRSSQSLLHSNGNNYLDWYLQKPGQSPHLLISLGSNRTSGVPDRFSGSGSGTDFTLKISRVEAEDVGFYYCMQALQPPRRFGQGTKLEIKR . Is its % Inhibition n=2 below 90%?
[A] criterion met

[Q] A record lists 29C12 (antibody, V domains shown, also called Ab-8; 29C12.1) VH: EVQLLESGGALVQPGGSLRLSCAASGFTFSSYAMNWVRQAPGKGLEWVSAISVGGDTYYADSVKGRFTISRDNSKNTLYLQMNSLRAEDTAVYYCAKDQVTMVRGVWYYYGLDVWGQGTTVTVSS VL: DIVMIQSPLSLPVTPGEPASISCRSSQSLLHSNGNNYLDWYLQKPGQSPHLLISLGSNRTSGVPDRFSGSGSGTDFTLKISRVEAEDVGVYYCMQALQPPRRFGQGTKLEIKR . Is its % Inhibition n=2 below 90%?
[A] criterion met

[Q] A record lists 32B5 (antibody, V domains shown, 32B5.1 was purified hybridoma IgG2 or IgG4; later converted to human IgG1; also called Ab-10; 32B5.1) VH: EVQLLESGGALVQPGGSLRLSCAASGFTFSSYAMNWVRQAPGKGLEWVSAISVGGDTYYADSVKGRFTISRDNSKNTLYLHVNSLSAEDSAVYYCAKDQVTLVRGVWYYYGLDVWGQGTTVTVSS VL: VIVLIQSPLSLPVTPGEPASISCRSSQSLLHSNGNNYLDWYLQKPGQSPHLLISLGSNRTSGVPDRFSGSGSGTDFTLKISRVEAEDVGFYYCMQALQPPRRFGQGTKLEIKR . Is its % Inhibition n=2 below 90%?
[A] criterion not met

[Q] A record lists 35D2 (antibody, V domains shown, also called Ab-15; 35D2.1) VH: EVQLLESGGALVQPGGSLRLSCAASGFTFSSYAMNWVRQAPGKGLEWVSAISVGGGTYYADSVKGRFTISRDNSKNTLYLHVNSLRAEDTAVYYCAKDQVTMVRGVWYYYGLDVWGQGTTVTVSS VL: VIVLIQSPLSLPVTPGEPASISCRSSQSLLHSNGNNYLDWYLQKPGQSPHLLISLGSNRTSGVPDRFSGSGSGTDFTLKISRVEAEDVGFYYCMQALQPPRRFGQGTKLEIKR . Is its % Inhibition n=2 below 90%?
[A] criterion met
